# study_target: T1, nGPCR-51 (human (H. sapiens), UniProt Q969V1 1-340)
# T1 construct: The functional assays used whole cells
# T1 sequence (Q969V1 whole entry): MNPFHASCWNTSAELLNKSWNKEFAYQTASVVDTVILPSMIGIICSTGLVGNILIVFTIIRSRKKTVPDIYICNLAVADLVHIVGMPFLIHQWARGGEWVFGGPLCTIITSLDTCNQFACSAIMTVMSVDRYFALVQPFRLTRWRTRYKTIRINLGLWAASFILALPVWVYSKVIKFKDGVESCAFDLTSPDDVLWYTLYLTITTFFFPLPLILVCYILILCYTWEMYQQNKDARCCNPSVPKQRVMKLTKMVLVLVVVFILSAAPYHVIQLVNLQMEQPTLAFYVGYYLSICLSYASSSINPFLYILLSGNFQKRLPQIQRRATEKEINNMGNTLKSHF
# method: saturation radioligand binding, membranes of COS 7 cells transiently expressing nGPCR-51, filtration
Bridge positions count the residues as written; N and C are the ends. Ends that are not written are not given here. * marks the point of attachment. 125I = [125I]*
result_type: Kd (nM)
Entry rule: numbers only, all in nM.

Ask: Give the measured Kd of DFDMLRCMLGRVY(125I)RPCWQV (disulfide 7-16 (inferred)) [[^125I] Peptide A] .
Result: 0.254
